- target: T1, full-length human GIPR (GenBank NM_000164) with an N-terminal FLAG tag on HEK-293T cells (human), P48546
- T1 chain: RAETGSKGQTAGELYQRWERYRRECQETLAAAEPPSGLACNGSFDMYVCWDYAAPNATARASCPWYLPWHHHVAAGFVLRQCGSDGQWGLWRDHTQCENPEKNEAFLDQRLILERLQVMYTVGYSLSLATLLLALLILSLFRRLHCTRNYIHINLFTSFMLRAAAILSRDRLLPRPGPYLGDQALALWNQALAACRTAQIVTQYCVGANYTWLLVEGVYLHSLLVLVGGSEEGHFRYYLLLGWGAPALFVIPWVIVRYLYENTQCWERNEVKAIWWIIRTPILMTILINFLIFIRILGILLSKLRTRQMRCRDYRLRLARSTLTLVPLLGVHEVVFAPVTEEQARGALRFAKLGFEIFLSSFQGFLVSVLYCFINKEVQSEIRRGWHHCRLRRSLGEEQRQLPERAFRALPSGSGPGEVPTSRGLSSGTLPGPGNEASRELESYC
- protocol details: cell-based or functional assay
Numbered stars: 1 amine (or outer) side, 2 acyl side, 3 side chain; on linkers, the order of the positions; unused ones are H or OH. Square brackets hold non-standard residues; d marks the D form. Primed or numbered codes have the meaning given here. Side chains are listed from the residue outwards. Ends that are not written are not given here. * marks the point of attachment. C20 diacid = O=C(O)CCCCCCCCCCCCCCCCCCC(=O)*; C18 diacid = O=C(O)CCCCCCCCCCCCCCCCC(=O)*; C16 diacid = O=C(O)CCCCCCCCCCCCCCC(=O)*; γGlu = O=C(O)[C@H](CCC(=O)[*:2])N[*:1]; Iva = CC[C@](C)(N)C(=O)O; PEG3′ = not defined here; Abu = CC[C@H](N)C(=O)O; Aib = CC(C)(N)C(=O)O
I'd appreciate it if you could label each record using GIP EC50(pM) and these ranges: small value: < 0.6 pM; mid value: ≥ 0.6 pM and < 1 pM; large value: ≥ 1 pM

See these solved cases before continuing.
binder	group
Y[Aib]EGTFISDYSIALDR[Aib]HQ[Aib]NFVNW[Iva]LAQRPSSGAPK([PEG3′-PEG3′-γGlu-Ida])PS (ends and bridges not checked) [Compound No. 504]	large value
Y[Aib]EGTFISDYSIALDR[Aib]HQ[Aib]NFVNW[Iva]LAQRPSK([Gly-Gly-Gly-Gly-Gly-γGlu-C20 diacid])GAPPPS (ends and bridges not checked) [Compound No. 446]	mid value
Y[Aib]EGTFISDYSIALDR[Aib]HQ[Aib]NFVNW[Iva]LAQRPSSK([Gly-Gly-Gly-Gly-Gly-γGlu-C16 diacid])APPPS (ends and bridges not checked) [Compound No. 447]	small value
Y[Aib]EGTFISDYSIALDR[Aib]HQ[Aib]NFVNW[Iva]LAQRPSK([PEG3′-PEG3′-C20 diacid])GAPPPSR (ends and bridges not checked) [Compound No 900]	mid value
Y[Aib]EGTFISDYSIALDR[Aib]HQ[Aib]NFVNW[Iva]LAQRPSSGK([Gly-Gly-Gly-Gly-Gly-γGlu-C16 diacid])PPPS (ends and bridges not checked) [Compound No. 450]	small value

Turning now to a further record.
*Q* # bin label for Y[Aib]EGTFISDYSIALDR[Aib]HQ[Aib]NFVNW[Iva]LAQRPSSK([Abu-γGlu-C18 diacid])APPPS (ends and bridges not checked) [Compound No. 540]
*A* large value
